Measured ligation selection enrichment values are reported for all entries that follow.
B1: library; a variant is named by its letters at N, in order (parent)
chain: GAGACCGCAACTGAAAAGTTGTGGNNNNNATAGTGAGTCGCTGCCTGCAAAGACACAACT

- Variants of: B1
- run_description: ligation selection enrichment (abundance after / before one-round selection) (fold); higher = more template-directed ligation activity
- details: with T7Psub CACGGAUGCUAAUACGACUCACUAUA; MgCl2 25 mM; 42 °C; 4 h; pH 8.5
assay_endpoint: ligation selection enrichment

AAGCA ... 0.236
AGCAT ... 3.55
AGTCC ... 0.157
AGAAG ... 0.4
ACAAG ... 0.442
CTCTC ... 0.116
TCGAA ... 0.975
TTGTG ... 0.223
TTATG ... 0.377
GTGGC ... 0.18
CGGTT ... 0.202
